Target: T1, human IL-13 (human, UniProt P35225 35-146, biotinylated on the Biacore chip)
T1 construct: also called hIL-13; recombinant human IL-13
T1 sequence (P35225 35-146 limits assumed): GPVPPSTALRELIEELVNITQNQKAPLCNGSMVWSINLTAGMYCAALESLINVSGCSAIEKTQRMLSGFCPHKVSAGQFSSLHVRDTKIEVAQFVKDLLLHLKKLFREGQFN
Test: Biacore SPR, IL-13 surface, before and after DOM10-53-386
reported.property: binding result

- binder: "DOM10-215 (other, Vk dAb) VL: DIQMTQSPSSLSASVGDRVTITCRASQNIFADLNWYQQKPGKAPKLLIYMGSRLQSGVPSRFSGSGSGTDFTLTISSLQPEDFATYYCQQDYKFPLTFGQGTKVEIKR"
  binding result: "binds"
- binder: "DOM10-236 (other, VH dAb) VH: EVQLLESGGGLVQPGGSLRLSCAASGFTFPKYDMMWVRQAPGKGLEWVSSIDHLGVNTYYADSVKGRFTISRDNSKNTLYLQMNSLRAEDTAVYYCAKESDWPSFDYWGQGTLVTVSS"
  binding result: "binds"
- binder: "DOM10-270 (other, Vk dAb) VL: DIQMTQSPSSLSASVGDRVTITCRASSVILNELHWYQQKPGKAPKLLISAVSRLQSGVPSRFSGSGSGTDFTLTISSLQPEDFATYYCLQTFWGPYTFGQGTKVEIKR"
  binding result: "binds"
- binder: "DOM10-277 (other, VH dAb) VH: EVQLLESGGGLVQPGGSLRLSCAASGFTFSSYEMDWVRQAPGKGLEWVSTISADGVTTYYADSVKGRFTISRDNSKNTLYLQMNSLRAEDTAVYYCAKAFDAFDYWGQGTLVTVSS"
  binding result: "binds"
- binder: "DOM10-213 (other, Vk dAb) VL: DIQMTQSPSSLSASVGDRVTITCRASQAIPWGLNWYQQKPGKAPKLLIYDVSSLQSGVPSRFSGSGSGTDFTLTISSLQPEDFATYYCQQDIHIPMTFGQGTKVEIKR"
  binding result: "binds"
- binder: "DOM10-212 (other, Vk dAb) VL: DIQMTQSPSSLSASVGDRVTITCRASSVILNELHWYQQKPGKAPKLLISAVSRLQSGVPSRFSGSGSGTDFTLTISSLQPEDFATYYCLQTFWGPFTFGQGTKVEIKR"
  binding result: "binds"
- binder: "DOM10-224 (other, Vk dAb) VL: DIQMTQSPSSLSASVGDRVTITCRASPNIAVDLAWYQQKPGKAPKLLIRGVSRLQSGVPSRFSGSGSGTDFTLTISSLQPEDFATYYCRQGAMGSYTFGQGTKVEIKR"
  binding result: "binds"

// moving on: another record for binding result
Query :: Return reported binding result; argument: DOM10-208 (other, Vk dAb) VL: DIQMTQSPSSLSASVGDRVTITCRASSPITDGLAWYQQKPGKAPKLLIDTGSRLQSGVPSRFSGSGSGTDFTLTISSLQPEDFATYYCRQGAMGSYTFGQGTKVEIKR
Result :: binds
